Sourced from patent US20100256055A1

molecular target: T1, NT receptor NTSR1 (high affinity NTSR1 receptor) on HT29 cells (human, UniProt P30989 1-418); experiment: competition with [3H]-NT on HT29 cells expressing NTSR1
T1 construct: whole, on cells; also called neurotensin receptor type 1; NTR1
T1 sequence (P30989 whole entry): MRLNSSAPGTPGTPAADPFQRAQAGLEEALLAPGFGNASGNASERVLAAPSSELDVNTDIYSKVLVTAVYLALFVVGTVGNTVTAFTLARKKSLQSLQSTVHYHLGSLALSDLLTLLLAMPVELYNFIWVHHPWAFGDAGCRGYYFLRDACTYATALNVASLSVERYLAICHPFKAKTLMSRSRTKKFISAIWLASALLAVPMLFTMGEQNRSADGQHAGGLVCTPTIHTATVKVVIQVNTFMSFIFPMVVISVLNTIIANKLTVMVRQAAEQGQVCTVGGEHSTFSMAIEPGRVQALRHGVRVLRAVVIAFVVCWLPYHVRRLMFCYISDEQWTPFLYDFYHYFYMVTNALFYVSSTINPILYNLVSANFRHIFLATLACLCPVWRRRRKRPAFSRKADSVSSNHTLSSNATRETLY
Square brackets hold non-standard residues; d marks the D form. pGlu = O=C1CC[C@@H](C(=O)O)N1
endpoint-label: IC50
Value and unit, in that order.

[pGlu]KRRPYIL-OH (SMILES CC[C@H](C)[C@H](NC(=O)[C@H](Cc1ccc(O)cc1)NC(=O)[C@@H]1CCCN1C(=O)[C@H](CCCNC(=N)N)NC(=O)[C@H](CCCNC(=N)N)NC(=O)[C@H](CCCCN)NC(=O)[C@@H]1CCC(=O)N1)C(=O)N[C@@H](CC(C)C)C(=O)O, Structure printed only as drawing CHEM-US-00006; The chain is built from the name, and Mw 1056.26 fits pGlu-KRRPYIL; also called pE-Lys-NT(8-13); pGlu-NT(8-13)) [pGlu-LysNT(8-13)] = 1.3 nM

-- ask Look up IC50: Ac-KRRPYIL-OH (Structure printed only as drawing CHEM-US-00004; The chain is built from the name, and Mw 987.20 fits Ac-KRRPYIL) [Ac-LysNT(8-13)]
-- reply 1 nM
